Measured Affinity change values are reported for all entries that follow.
assay_system: T1, EGFR-Fc fusion protein (recombinant EGFR extracellular region-Fc) (human, UniProt P00533 25-645)
T1 construct: extracellular domain; not shown: Fc part supplied by vector pABG1
measurement_description: BLI ForteBio QKe, biotinylated EGFR-Fc on streptavidin sensor, antibody 20 nM; fold reduction of affinity, parent Ame55 = 1;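 further: parent antibody affinity set as 1, with values giving the fold drop in affinity of each mutant antibody relative to that parent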

{"binder": "Ame55 mutant, light chain 26N(C2) (antibody, V domains shown, Mutant of Ame55) VH: EVQLVQSGAEVKKPGESLKISCKGSGYSFTSYWIGWVRQMPGKGLEWMGIIYPGDSDTRYSPSFQGQVTISADKSISTAYLQWSSLKASDTAMYYCARGIIYPSNVAVWGQGTLVTVSS VL: SYELTQPPSVSVAPGQTARITCSGDNLGDKYASWYQQKPGQAPVLVIYEDSKRPSGIPERFSGSNSGNTATLTISGTQAEDEADYYCSVWDGDWGMPVFGGGTKLTVLG", "censoring_qualifier": "=", "Affinity change [fold]": 1}
{"binder": "Ame55 mutant, light chain 97A (antibody, V domains shown, Mutant of Ame55) VH: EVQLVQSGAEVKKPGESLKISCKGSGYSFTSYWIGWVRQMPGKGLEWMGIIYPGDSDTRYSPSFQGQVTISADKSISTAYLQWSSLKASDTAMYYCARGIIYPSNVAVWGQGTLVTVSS VL: SYELTQPPSVSVAPGQTARITCSGDALGDKYASWYQQKPGQAPVLVIYEDSKRPSGIPERFSGSNSGNTATLTISGTQAEDEADYYCSVWDGDWGMAVFGGGTKLTVLG", "censoring_qualifier": ">", "Affinity change [fold]": 10}
{"binder": "Ame55 mutant, light chain 95S (antibody, V domains shown, Mutant of Ame55) VH: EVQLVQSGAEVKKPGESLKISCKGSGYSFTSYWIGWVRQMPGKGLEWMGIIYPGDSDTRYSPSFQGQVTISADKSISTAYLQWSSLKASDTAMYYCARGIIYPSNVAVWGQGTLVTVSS VL: SYELTQPPSVSVAPGQTARITCSGDALGDKYASWYQQKPGQAPVLVIYEDSKRPSGIPERFSGSNSGNTATLTISGTQAEDEADYYCSVWDGDWSMPVFGGGTKLTVLG", "censoring_qualifier": ">", "Affinity change [fold]": 10}
{"binder": "Ame55 mutant, light chain 94A (antibody, V domains shown, Mutant of Ame55) VH: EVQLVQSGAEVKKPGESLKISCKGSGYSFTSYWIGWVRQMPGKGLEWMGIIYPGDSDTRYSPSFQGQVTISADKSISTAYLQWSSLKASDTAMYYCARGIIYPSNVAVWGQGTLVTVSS VL: SYELTQPPSVSVAPGQTARITCSGDALGDKYASWYQQKPGQAPVLVIYEDSKRPSGIPERFSGSNSGNTATLTISGTQAEDEADYYCSVWDGDAGMPVFGGGTKLTVLG", "censoring_qualifier": ">", "Affinity change [fold]": 10}
{"binder": "Ame55 mutant, light chain 92P (antibody, V domains shown, Mutant of Ame55) VH: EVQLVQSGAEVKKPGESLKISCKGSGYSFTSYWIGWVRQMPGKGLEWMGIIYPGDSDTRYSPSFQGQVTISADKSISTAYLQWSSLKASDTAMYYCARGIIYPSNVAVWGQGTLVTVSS VL: SYELTQPPSVSVAPGQTARITCSGDALGDKYASWYQQKPGQAPVLVIYEDSKRPSGIPERFSGSNSGNTATLTISGTQAEDEADYYCSVWDPDWGMPVFGGGTKLTVLG", "censoring_qualifier": "=", "Affinity change [fold]": 1}
